# Tested on: HepG2 cells
# assay_protocol: HepG2 cytotoxicity assay
# recorded_conditions: HepG2 cytotoxicity unified across screens; >25 set to 25.00
We label by threshold. Values of Unified cytotox strictly beneath 5 µM are 1. Values of 5 µM and up are 0.

1. COc1cc2c(c(Cl)c1OC)CCN(C(=O)C(F)(F)F)CC2c1ccccc1 (stereo not drawn) [TCMDC-132071] : 0
2. Cc1nc(-c2cccc(Nc3ccnc4cc(-c5nccs5)ccc34)c2)no1.Cl [TCMDC-138334] : 0

Is 5 µM strictly greater than the compound's reported Unified cytotox? compound: COc1ccccc1CCNc1nc(C)cc(N[C@@H](Cc2ccccc2)C(=O)NCc2cccc(F)c2)n1.O=C(O)C(F)(F)F [TCMDC-134893]
0

Lookup FC(F)c1nc2ccccc2n1-c1nc(N2CCOCC2)nc(N2CCOCC2)n1 [TCMDC-137004]
1

What do you have for CC(C)CNCc1cccc(-c2cccc(CN(CCN(C)C)C(=O)Nc3ccccc3)c2)c1.O=C(O)C(F)(F)F [TCMDC-140592] ?
0

And then CCCCCCCN1CC[C@@H](CCCc2ccnc3ccc(OCC4CCCNC4)cc23)[C@@H](CC)C1.Cl (stereo partly drawn) [TCMDC-139816] , what is it?
1

Another: CC(C)CNCc1cccc(-c2cccc(CNCCCN3CCN(C)CC3)c2)c1.O=C(O)C(F)(F)F [TCMDC-140483]
0

And the next one, COCCCNC(=S)NN=C(C)c1ccccn1 [TCMDC-137907] ?
0

How about this compound: O=C(/C=C/c1ccc(Cl)c(Cl)c1)NCCCCCN1CCCC(CNS(=O)(=O)c2cccc(C(F)(F)F)c2)C1 (stereo not drawn) [TCMDC-139597]
1

Lookup CC(C)CCNC(=O)c1cnc2c(O)cccc2c1Nc1cccc(NC(=O)c2ccc(F)cc2)c1.O=C(O)C(F)(F)F [TCMDC-139606]
0

====

Assign Unified cytotox to each entry below.
# System: HepG2 cells
# assay_protocol: HepG2 cytotoxicity assay
# recorded_conditions: HepG2 cytotoxicity unified across the three screens
One number for each entry, in µM.

Recorded Unified cytotox, per entry:
1) CCCCN(CCCC)/C(=N/C(=N)NCc1ccc(Cl)c(Cl)c1)NCCCCCCN/C(=N\C(=N)NCc1ccc(Cl)c(Cl)c1)N(CCCC)CCCC [TCMDC-131821] : 13.18
2) Cl.Clc1ccc(OCCC2CCN(CCCCCCCN3CCC(CCOc4ccc(Cl)c(Cl)c4)CC3)CC2)cc1Cl [TCMDC-138967] : 2.12
3) CC(CCCCCC(=O)Nc1ccc(CC(C)NCCc2cccc(Cl)c2)cc1)NCCc1cccc(Cl)c1 (stereo not shown) [TCMDC-139800] : 2.87

From here, focus on the item given below.
Consider the compound shown here: Cl.c1ccc2c(NCCCCCCCCCNc3ccnc4ccccc34)ccnc2c1 [TCMDC-137750] What is its recorded Unified cytotox?
2.20

====

What IC50 was measured for each of the following?
# Test system: HepG2 cells
# assay_protocol: HepG2 cytotoxicity assay
# recorded_conditions: read-out: HepG2 cytotoxicity assay IC50; dose response confirmation
# Experimental: Briefly, HepG2 cells were seeded onto compound-treated 384 well plates at a density of 2,500 cells per well in Minimal Essential Medium (MEM) plus 10% fetal bovine serum and 1% non-essential amino acids solution (NEAA). […] Cell viability was then measured in a fluorescent plate reader and percent inhibition calculated with respect to positive and negative controls.
Answers are plain numbers, in µM.

1) Cl.OCC(CO)(CO)NCc1ccc2c3c(cccc13)-c1ccccc1-2 : 9.55
2) CCOC(=O)C1=C(C)NC2=C(C(=O)C(C(=O)OC)C(C)C2)C1c1cc(Br)c(OCC)c(OC)c1 (centres unmarked) : 100
3) Br.CC1(C)N=C(N)N=C(N)N1OCCc1cccc2ccccc12 : 0.001

Please give IC50, item by item, for the list that follows.
1. Br.CC(C)(C)c1ccccc1OCCCON1C(=N)N=C(N)NC1(C)C
2. COc1cc(Nc2ncc3c(C)nc(-c4cccc(Nc5ccc(CN6CCS(=O)(=O)CC6)cc5)c4)n3n2)cc(OC)c1OC
3. Cc1[nH]c(C)c([N+](=O)[O-])c(=O)c1-c1ccc(Oc2ccccc2)cc1

1. 0.001
2. 30.9
3. 100

Provide each entry's IC50 from the list below.
1. CCn1c(C(C)C)cc2c3c(N)nc(N)nc3ccc21
2. CC(ON1C(N)=NC(N)=NC1(C)C)c1ccccc1 (centres unmarked)

1. 0.00302
2. 0.0372
